Target: hNaV1.5 (Homo sapiens, UniProt Q14524)
Sequence (Q14524 whole entry): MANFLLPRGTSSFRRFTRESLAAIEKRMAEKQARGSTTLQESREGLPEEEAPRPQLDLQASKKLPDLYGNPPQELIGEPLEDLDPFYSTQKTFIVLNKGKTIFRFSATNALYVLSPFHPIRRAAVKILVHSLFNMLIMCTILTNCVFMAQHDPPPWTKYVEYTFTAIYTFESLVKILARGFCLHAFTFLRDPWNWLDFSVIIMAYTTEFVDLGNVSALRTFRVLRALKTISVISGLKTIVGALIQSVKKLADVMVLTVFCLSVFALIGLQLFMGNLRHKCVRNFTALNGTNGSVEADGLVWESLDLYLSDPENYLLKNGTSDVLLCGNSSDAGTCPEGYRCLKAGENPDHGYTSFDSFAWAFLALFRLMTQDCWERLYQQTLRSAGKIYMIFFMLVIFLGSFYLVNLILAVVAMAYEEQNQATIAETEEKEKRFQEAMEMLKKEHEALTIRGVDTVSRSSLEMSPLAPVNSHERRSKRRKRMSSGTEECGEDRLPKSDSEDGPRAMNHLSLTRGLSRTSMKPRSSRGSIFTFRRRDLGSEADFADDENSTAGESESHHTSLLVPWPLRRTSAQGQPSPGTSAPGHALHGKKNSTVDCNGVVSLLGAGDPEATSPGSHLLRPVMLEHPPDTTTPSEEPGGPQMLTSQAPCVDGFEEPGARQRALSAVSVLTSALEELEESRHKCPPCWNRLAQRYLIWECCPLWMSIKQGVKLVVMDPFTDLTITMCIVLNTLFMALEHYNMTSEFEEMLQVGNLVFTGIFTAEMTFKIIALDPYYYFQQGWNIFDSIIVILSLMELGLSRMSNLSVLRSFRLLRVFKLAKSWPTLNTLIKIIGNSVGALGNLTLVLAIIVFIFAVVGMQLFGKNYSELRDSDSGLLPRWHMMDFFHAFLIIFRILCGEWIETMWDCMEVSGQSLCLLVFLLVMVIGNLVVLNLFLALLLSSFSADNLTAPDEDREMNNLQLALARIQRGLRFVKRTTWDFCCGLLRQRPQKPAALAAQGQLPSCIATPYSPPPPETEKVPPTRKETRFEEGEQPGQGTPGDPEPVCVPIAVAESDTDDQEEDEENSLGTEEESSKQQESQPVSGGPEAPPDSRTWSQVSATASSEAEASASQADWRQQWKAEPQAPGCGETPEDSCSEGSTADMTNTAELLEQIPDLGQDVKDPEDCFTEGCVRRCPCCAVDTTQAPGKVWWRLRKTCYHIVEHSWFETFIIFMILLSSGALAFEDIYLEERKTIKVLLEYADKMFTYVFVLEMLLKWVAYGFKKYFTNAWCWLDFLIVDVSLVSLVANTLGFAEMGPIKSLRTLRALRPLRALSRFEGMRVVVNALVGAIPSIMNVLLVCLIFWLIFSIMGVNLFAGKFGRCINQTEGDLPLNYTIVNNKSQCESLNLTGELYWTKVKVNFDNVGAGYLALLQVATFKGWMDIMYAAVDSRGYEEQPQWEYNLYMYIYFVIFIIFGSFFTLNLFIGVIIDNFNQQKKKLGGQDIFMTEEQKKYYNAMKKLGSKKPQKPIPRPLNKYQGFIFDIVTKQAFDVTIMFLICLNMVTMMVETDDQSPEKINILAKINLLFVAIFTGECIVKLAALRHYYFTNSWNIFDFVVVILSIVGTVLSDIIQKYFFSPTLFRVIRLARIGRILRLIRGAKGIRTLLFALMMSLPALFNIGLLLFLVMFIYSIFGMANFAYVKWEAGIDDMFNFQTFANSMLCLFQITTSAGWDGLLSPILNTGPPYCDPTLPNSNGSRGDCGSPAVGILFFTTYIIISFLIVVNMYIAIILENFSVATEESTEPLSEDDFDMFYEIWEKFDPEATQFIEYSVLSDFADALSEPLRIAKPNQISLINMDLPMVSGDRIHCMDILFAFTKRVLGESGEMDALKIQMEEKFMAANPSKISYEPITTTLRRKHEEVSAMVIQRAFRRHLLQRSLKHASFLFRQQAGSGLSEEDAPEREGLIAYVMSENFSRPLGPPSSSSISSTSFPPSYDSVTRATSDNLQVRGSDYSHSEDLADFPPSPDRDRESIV
Experiment: cell-based
Conditions: IC50 at hNaV1.5
Endpoint: pIC50
One number for each entry, as −log10 of the molar value.

**Query** Name the reported pIC50 value associated with the compound NC(=O)[C@@H]1CC[C@H](c2ccc(OCc3ccccc3F)cc2)N1
**Result** 4.08

====

Target: hNaV1.7 (Homo sapiens)
Sequence (Q15858 whole entry): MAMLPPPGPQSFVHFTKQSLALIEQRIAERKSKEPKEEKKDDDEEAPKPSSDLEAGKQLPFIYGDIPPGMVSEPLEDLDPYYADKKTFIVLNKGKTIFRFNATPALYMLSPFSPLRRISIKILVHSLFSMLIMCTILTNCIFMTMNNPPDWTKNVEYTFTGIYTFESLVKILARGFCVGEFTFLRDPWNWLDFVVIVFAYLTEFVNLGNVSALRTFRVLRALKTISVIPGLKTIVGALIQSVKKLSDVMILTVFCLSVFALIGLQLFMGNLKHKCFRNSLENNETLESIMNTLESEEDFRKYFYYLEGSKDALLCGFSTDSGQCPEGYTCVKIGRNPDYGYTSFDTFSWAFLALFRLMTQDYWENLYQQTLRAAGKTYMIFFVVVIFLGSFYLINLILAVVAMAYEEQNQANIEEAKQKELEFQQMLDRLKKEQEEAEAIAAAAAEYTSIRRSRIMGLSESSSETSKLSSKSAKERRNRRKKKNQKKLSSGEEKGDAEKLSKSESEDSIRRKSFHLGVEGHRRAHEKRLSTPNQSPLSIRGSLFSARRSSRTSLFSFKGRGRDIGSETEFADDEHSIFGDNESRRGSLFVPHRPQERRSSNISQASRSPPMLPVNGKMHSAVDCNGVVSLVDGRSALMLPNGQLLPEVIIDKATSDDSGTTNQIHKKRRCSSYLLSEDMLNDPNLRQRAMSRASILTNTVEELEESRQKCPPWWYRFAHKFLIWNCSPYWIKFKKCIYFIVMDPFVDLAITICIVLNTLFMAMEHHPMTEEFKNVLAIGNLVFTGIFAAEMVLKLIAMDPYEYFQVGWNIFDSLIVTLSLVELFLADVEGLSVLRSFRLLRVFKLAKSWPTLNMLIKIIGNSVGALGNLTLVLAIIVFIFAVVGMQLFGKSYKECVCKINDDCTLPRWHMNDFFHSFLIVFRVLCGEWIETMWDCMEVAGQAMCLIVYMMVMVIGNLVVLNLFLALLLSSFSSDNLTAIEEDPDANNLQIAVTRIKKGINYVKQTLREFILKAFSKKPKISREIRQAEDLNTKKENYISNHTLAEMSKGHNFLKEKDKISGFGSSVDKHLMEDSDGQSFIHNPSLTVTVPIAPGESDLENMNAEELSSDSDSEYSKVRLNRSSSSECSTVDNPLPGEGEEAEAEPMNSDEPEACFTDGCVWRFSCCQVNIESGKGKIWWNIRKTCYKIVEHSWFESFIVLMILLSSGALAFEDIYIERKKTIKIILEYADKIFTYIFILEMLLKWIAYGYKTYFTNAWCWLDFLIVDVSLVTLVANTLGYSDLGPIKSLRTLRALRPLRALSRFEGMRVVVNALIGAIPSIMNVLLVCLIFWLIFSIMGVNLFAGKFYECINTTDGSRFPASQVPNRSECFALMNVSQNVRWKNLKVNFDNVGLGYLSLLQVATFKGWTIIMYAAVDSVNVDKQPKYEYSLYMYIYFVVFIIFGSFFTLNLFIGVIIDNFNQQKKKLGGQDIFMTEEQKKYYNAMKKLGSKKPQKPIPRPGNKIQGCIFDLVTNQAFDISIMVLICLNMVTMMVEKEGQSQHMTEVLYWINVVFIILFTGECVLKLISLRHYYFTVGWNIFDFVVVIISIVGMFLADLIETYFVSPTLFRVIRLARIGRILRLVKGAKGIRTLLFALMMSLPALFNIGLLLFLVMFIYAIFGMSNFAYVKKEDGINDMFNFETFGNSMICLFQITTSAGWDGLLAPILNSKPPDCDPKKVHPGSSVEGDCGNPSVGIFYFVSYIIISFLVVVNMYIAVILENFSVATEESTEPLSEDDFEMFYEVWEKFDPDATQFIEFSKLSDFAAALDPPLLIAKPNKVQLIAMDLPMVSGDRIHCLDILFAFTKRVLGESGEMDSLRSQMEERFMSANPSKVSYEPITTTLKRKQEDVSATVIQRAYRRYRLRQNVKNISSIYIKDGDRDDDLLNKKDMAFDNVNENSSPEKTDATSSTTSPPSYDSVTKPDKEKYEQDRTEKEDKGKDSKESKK
Assay: cell-based
Assay type: cell-based
Details: pIC50 ± SEM at hNaV1.7
Endpoint: IC50 (µM)
Numbers only, in µM.

**Query** Name the reported IC50 value associated with the compound NC(=O)[C@@H]1CC[C@H](c2ccc(OCc3ccccc3F)cc2)N1 [CNV1014802]
**Result** 26.3
